tested on: Rattus norvegicus; experiment: Anti-inflammatory activity against Carrageenan-induced paw oedema rat model at 20 mg/kg after 30 min; format: functional
quantityMeasured: Activity

| compound | valueReported |
| --- | --- |
| Cc1ccccc1/C=N\Nc1nc2ccccc2c(=O)n1-c1ccccc1 | 36% |
| CCC(CC)=NNc1nc2ccccc2c(=O)n1-c1ccccc1 | 43% |
| CC/C(C)=N/Nc1nc2ccccc2c(=O)n1-c1ccccc1 | 38% |
| C/C(=N\Nc1nc2ccccc2c(=O)n1-c1ccccc1)c1ccccc1 | 38% |
| O=c1c2ccccc2nc(NN=C(c2ccccc2)c2ccccc2)n1-c1ccccc1 | 36% |
| O=c1c2ccccc2nc(N/N=C\c2ccccc2)n1-c1ccccc1 | 36% |
| CCC/C(C)=N/Nc1nc2ccccc2c(=O)n1-c1ccccc1 | 46% |
| COc1ccc(/C=N\Nc2nc3ccccc3c(=O)n2-c2ccccc2)cc1 | 33% |
| O=c1c2ccccc2nc(NN=C2CCCCC2)n1-c1ccccc1 | 39% |
| O=C(O)Cc1ccccc1Nc1c(Cl)cccc1Cl [DICLOFENAC] | 45% |
| Cc1ccc(/C=N\Nc2nc3ccccc3c(=O)n2-c2ccccc2)cc1 | 38% |
| O=C1Nc2ccccc2/C1=N\Nc1nc2ccccc2c(=O)n1-c1ccccc1 | 32% |
| O=c1c2ccccc2nc(N/N=C\c2ccc([N+](=O)[O-])cc2)n1-c1ccccc1 | 35% |
| O=c1c2ccccc2nc(N/N=C\c2ccccc2[N+](=O)[O-])n1-c1ccccc1 | 32% |
| O=c1c2ccccc2nc(N/N=C\c2ccccc2Cl)n1-c1ccccc1 | 27% |
| O=c1c2ccccc2nc(N/N=C\c2ccc(Cl)cc2)n1-c1ccccc1 | 29% |

###

Listed next: entries and their corresponding Activity.
test system: Rattus norvegicus; assay: Anti-inflammatory activity against Carrageenan-induced paw oedema rat model at 10 mg/kg after 3 hrs; format: functional
quantityMeasured: Activity (%)

| smilesStr | quantityMeasured | valueReported |
| --- | --- | --- |
| COc1ccc(/C=N\Nc2nc3ccccc3c(=O)n2-c2ccccc2)cc1 | Activity | 24 |
| O=C1Nc2ccccc2/C1=N\Nc1nc2ccccc2c(=O)n1-c1ccccc1 | Activity | 23 |
| O=c1c2ccccc2nc(NN=C(c2ccccc2)c2ccccc2)n1-c1ccccc1 | Activity | 26 |
| O=c1c2ccccc2nc(N/N=C\c2ccc([N+](=O)[O-])cc2)n1-c1ccccc1 | Activity | 20 |
| O=c1c2ccccc2nc(N/N=C\c2ccccc2[N+](=O)[O-])n1-c1ccccc1 | Activity | 22 |

###

tested on: Rattus norvegicus; experiment: Anti-inflammatory activity against Carrageenan-induced paw oedema rat model at 10 mg/kg after 3 hrs; assay type: functional
Use Satisfied when the recorded Activity is no lower than 30%; use Not satisfied when it is lower.

| molecule | assayedSystem | category |
| --- | --- | --- |
| O=c1c2ccccc2nc(N/N=C\c2ccccc2)n1-c1ccccc1 | Rattus norvegicus | Not satisfied |
| Cc1ccccc1/C=N\Nc1nc2ccccc2c(=O)n1-c1ccccc1 | Rattus norvegicus | Not satisfied |
| O=c1c2ccccc2nc(NN=C2CCCCC2)n1-c1ccccc1 | Rattus norvegicus | Not satisfied |
| O=c1c2ccccc2nc(N/N=C\c2ccc(Cl)cc2)n1-c1ccccc1 | Rattus norvegicus | Not satisfied |
| O=C(O)Cc1ccccc1Nc1c(Cl)cccc1Cl [DICLOFENAC] | Rattus norvegicus | Satisfied |
| CCC(CC)=NNc1nc2ccccc2c(=O)n1-c1ccccc1 | Rattus norvegicus | Satisfied |
| CC/C(C)=N/Nc1nc2ccccc2c(=O)n1-c1ccccc1 | Rattus norvegicus | Not satisfied |
| C/C(=N\Nc1nc2ccccc2c(=O)n1-c1ccccc1)c1ccccc1 | Rattus norvegicus | Not satisfied |
| O=c1c2ccccc2nc(N/N=C\c2ccccc2Cl)n1-c1ccccc1 | Rattus norvegicus | Not satisfied |
| CCC/C(C)=N/Nc1nc2ccccc2c(=O)n1-c1ccccc1 | Rattus norvegicus | Satisfied |
| Cc1ccc(/C=N\Nc2nc3ccccc3c(=O)n2-c2ccccc2)cc1 | Rattus norvegicus | Not satisfied |

###

Listed next: entries and their corresponding Activity.
system: Rattus norvegicus; test: Anti-inflammatory activity against Carrageenan-induced paw oedema rat model at 20 mg/kg after 2 hrs; assay type: functional
quantityMeasured: Activity

| smilesStr | valueReported |
| --- | --- |
| O=c1c2ccccc2nc(NN=C(c2ccccc2)c2ccccc2)n1-c1ccccc1 | 42% |
| CCC/C(C)=N/Nc1nc2ccccc2c(=O)n1-c1ccccc1 | 60% |
| CCC(CC)=NNc1nc2ccccc2c(=O)n1-c1ccccc1 | 56% |
| O=C1Nc2ccccc2/C1=N\Nc1nc2ccccc2c(=O)n1-c1ccccc1 | 39% |
| CC/C(C)=N/Nc1nc2ccccc2c(=O)n1-c1ccccc1 | 47% |
| C/C(=N\Nc1nc2ccccc2c(=O)n1-c1ccccc1)c1ccccc1 | 46% |
| O=c1c2ccccc2nc(N/N=C\c2ccc(Cl)cc2)n1-c1ccccc1 | 37% |
| O=c1c2ccccc2nc(N/N=C\c2ccccc2Cl)n1-c1ccccc1 | 35% |
| O=c1c2ccccc2nc(N/N=C\c2ccc([N+](=O)[O-])cc2)n1-c1ccccc1 | 36% |
| O=c1c2ccccc2nc(NN=C2CCCCC2)n1-c1ccccc1 | 42% |
| Cc1ccccc1/C=N\Nc1nc2ccccc2c(=O)n1-c1ccccc1 | 42% |
| O=c1c2ccccc2nc(N/N=C\c2ccccc2)n1-c1ccccc1 | 43% |
| Cc1ccc(/C=N\Nc2nc3ccccc3c(=O)n2-c2ccccc2)cc1 | 43% |
| COc1ccc(/C=N\Nc2nc3ccccc3c(=O)n2-c2ccccc2)cc1 | 37% |
| O=c1c2ccccc2nc(N/N=C\c2ccccc2[N+](=O)[O-])n1-c1ccccc1 | 36% |
| O=C(O)Cc1ccccc1Nc1c(Cl)cccc1Cl | 60% |

###

Listed next: entries and their corresponding Activity.
system: Mus musculus; assay: Analgesic activity in Wistar Albino mouse at 20 mg/kg, po after 1 hr by tail-flick technique; assay type: functional
quantityMeasured: Activity

| smilesStr | valueReported |
| --- | --- |
| CCC(CC)=NNc1nc2ccccc2c(=O)n1-c1ccccc1 | 69% |
| CC/C(C)=N/Nc1nc2ccccc2c(=O)n1-c1ccccc1 | 59% |
| Cc1ccc(/C=N\Nc2nc3ccccc3c(=O)n2-c2ccccc2)cc1 | 47% |
| O=c1c2ccccc2nc(NN=C2CCCCC2)n1-c1ccccc1 | 51% |
| O=c1c2ccccc2nc(N/N=C\c2ccccc2[N+](=O)[O-])n1-c1ccccc1 | 46% |
| Cc1ccccc1/C=N\Nc1nc2ccccc2c(=O)n1-c1ccccc1 | 46% |
| O=C1Nc2ccccc2/C1=N\Nc1nc2ccccc2c(=O)n1-c1ccccc1 | 51% |
| O=c1c2ccccc2nc(N/N=C\c2ccccc2)n1-c1ccccc1 | 50% |
| O=c1c2ccccc2nc(N/N=C\c2ccccc2Cl)n1-c1ccccc1 | 39% |
| COc1ccc(/C=N\Nc2nc3ccccc3c(=O)n2-c2ccccc2)cc1 | 49% |
| C/C(=N\Nc1nc2ccccc2c(=O)n1-c1ccccc1)c1ccccc1 | 53% |

###

tested on: Rattus norvegicus; assay: Anti-inflammatory activity against Carrageenan-induced paw oedema rat model at 20 mg/kg after 1 hr; type: functional
Listed next: entries and their corresponding Activity.

| smilesStr | assayedSystem | Activity [%] |
| --- | --- | --- |
| Cc1ccccc1/C=N\Nc1nc2ccccc2c(=O)n1-c1ccccc1 | Rattus norvegicus | 39 |
| O=c1c2ccccc2nc(NN=C(c2ccccc2)c2ccccc2)n1-c1ccccc1 | Rattus norvegicus | 39 |
| O=c1c2ccccc2nc(N/N=C\c2ccccc2)n1-c1ccccc1 | Rattus norvegicus | 40 |
| O=c1c2ccccc2nc(N/N=C\c2ccccc2Cl)n1-c1ccccc1 | Rattus norvegicus | 32 |
| O=c1c2ccccc2nc(N/N=C\c2ccc(Cl)cc2)n1-c1ccccc1 | Rattus norvegicus | 32 |
| O=C1Nc2ccccc2/C1=N\Nc1nc2ccccc2c(=O)n1-c1ccccc1 | Rattus norvegicus | 36 |
| CCC/C(C)=N/Nc1nc2ccccc2c(=O)n1-c1ccccc1 | Rattus norvegicus | 58 |
| O=c1c2ccccc2nc(N/N=C\c2ccc([N+](=O)[O-])cc2)n1-c1ccccc1 | Rattus norvegicus | 35 |
| O=C(O)Cc1ccccc1Nc1c(Cl)cccc1Cl | Rattus norvegicus | 52 |
| CCC(CC)=NNc1nc2ccccc2c(=O)n1-c1ccccc1 | Rattus norvegicus | 52 |
| Cc1ccc(/C=N\Nc2nc3ccccc3c(=O)n2-c2ccccc2)cc1 | Rattus norvegicus | 38 |
| CC/C(C)=N/Nc1nc2ccccc2c(=O)n1-c1ccccc1 | Rattus norvegicus | 45 |
| C/C(=N\Nc1nc2ccccc2c(=O)n1-c1ccccc1)c1ccccc1 | Rattus norvegicus | 42 |
| O=c1c2ccccc2nc(N/N=C\c2ccccc2[N+](=O)[O-])n1-c1ccccc1 | Rattus norvegicus | 33 |
| COc1ccc(/C=N\Nc2nc3ccccc3c(=O)n2-c2ccccc2)cc1 | Rattus norvegicus | 37 |
| O=c1c2ccccc2nc(NN=C2CCCCC2)n1-c1ccccc1 | Rattus norvegicus | 42 |
